# MEASUREMENT_NOTES: Pharmacokinetic study of four steroidal saponins in rat plasma after oral administration of A. asphodeloides fractions (UPLC-MS/MS)
# Type: in vivo, Sprague-Dawley rats
# EXPERIMENTAL_CONDITIONS: male, Sprague-Dawley, rat, in vivo, po, 400 mg/kg
MEASURED_PARAMETER: AUC(0-t)
Could you kindly put the unit after your number?

Query string: AUC(0-t) for CC(CCC1(O)OC2C(O)C3C4CCC5CC(OC6OC(CO)C(O)C(O)C6OC6OC(CO)C(O)C(O)C6O)CCC5(C)C4CCC3(C)C2C1C)COC1OC(CO)C(O)C(O)C1O (centres unmarked) [Timosaponin E1, timosaponin E1] ?
Result string: 286 ng·h/mL

Query string: Check CC1=C(CCC(C)COC2OC(CO)C(O)C(O)C2O)OC2CC3C4CCC5CC(OC6OC(CO)C(O)C(O)C6OC6OC(CO)C(O)C(O)C6O)CCC5(C)C4CCC3(C)C12 (centres unmarked) [Anemarsaponin BIII, anemarsaponin BIII] too.
Result string: 551 ng·h/mL

These measurements were taken from paper PMC6331991.
